System: C57BL/6j mice
run description: Sub-chronic toxicity study (10 days), plasma biochemistry
Assay type: in vivo
conditions: daily i.p. 10 days, 10 mg/kg, plasma
attribute measured: A-G Ratio

Task: Hello, I am looking for reported A-G Ratio with C57BL/6j mice for O=P(O)(O)OCC1OC(n2cnc3c(NCc4ccccc4)ncnc32)C(O)C1O (stereo not shown) . Could you help?
Result: 1.93

---

Tested on: athymic nude mice
run description: Chronic toxicity study (28 days), plasma biochemistry
Type: in vivo
conditions: i.p. 28 days, 30 mg/kg, plasma
attribute measured: A-G Ratio

Task: Report A-G Ratio for O=P(O)(O)OCC1OC(n2cnc3c(NCc4ccccc4)ncnc32)C(O)C1O (stereo not shown) please.
Result: 1.9

Where these numbers come from: paper PMC7724566
